- Test system: HL-60
- assay_method_text: Antiproliferative activity against human HL60 cells by MTT assay
- Assay type: functional, cell-based
pIC50: −log10 of the molar value.
endpoint_name: pIC50

// known answers, use as guide
[[record]]
compound = "C[C@H]1[C@@H](OCc2cn(-c3ccc(C(=O)N4CCCCC4)cc3)nn2)O[C@@H]2O[C@@]3(C)CC[C@H]4[C@H](C)CC[C@@H]1[C@@]24OO3"
value_measured = "3.75 to 5.60"

[[record]]
compound = "CC1CCN(C(=O)c2cccc(-n3cc(CO[C@H]4O[C@@H]5O[C@@]6(C)CC[C@H]7[C@H](C)CC[C@@H]([C@H]4C)[C@@]57OO6)nn3)c2)CC1"
value_measured = "3.75 to 5.60"

[[record]]
compound = "CC1CCN(C(=O)c2ccc(-n3cc(CO[C@H]4O[C@@H]5O[C@@]6(C)CC[C@H]7[C@H](C)CC[C@@H]([C@H]4C)[C@@]57OO6)nn3)cc2)CC1"
value_measured = "5.33 to 5.60"

[[record]]
compound = "C[C@H]1[C@@H](O)O[C@@H]2O[C@@]3(C)CC[C@H]4[C@H](C)CC[C@@H]1[C@@]24OO3 [ARTENIMOL]"
value_measured = "4.07 to 4.40"

[[record]]
compound = "CCN(CC)C(=O)c1ccc(-n2cc(CO[C@H]3O[C@@H]4O[C@@]5(C)CC[C@H]6[C@H](C)CC[C@@H]([C@H]3C)[C@@]46OO5)nn2)cc1"
value_measured = "3.75 to 5.60"


I have this compound here, C[C@H]1[C@@H](OCc2cn(-c3ccc(C(=O)N4CCOCC4)cc3)nn2)O[C@@H]2O[C@@]3(C)CC[C@H]4[C@H](C)CC[C@@H]1[C@@]24OO3 , and I need its recorded pIC50.
3.75 to 5.60

Another compound: C[C@H]1[C@@H](OCc2cn(-c3cccc(C(=O)N4CCN(C)CC4)c3)nn2)O[C@@H]2O[C@@]3(C)CC[C@H]4[C@H](C)CC[C@@H]1[C@@]24OO3
3.75 to 5.60

Another compound: CCN1CCN(C(=O)c2ccc(-n3cc(CO[C@H]4O[C@@H]5O[C@@]6(C)CC[C@H]7[C@H](C)CC[C@@H]([C@H]4C)[C@@]57OO6)nn3)cc2)CC1
3.75 to 5.60

Another compound: C[C@H]1[C@@H](OCc2cn(-c3cccc(C(=O)N4CCCC4)c3)nn2)O[C@@H]2O[C@@]3(C)CC[C@H]4[C@H](C)CC[C@@H]1[C@@]24OO3
3.75 to 5.60

Another compound: C[C@H]1[C@@H](OCc2cn(-c3ccc(C(=O)N4CCCC4)cc3)nn2)O[C@@H]2O[C@@]3(C)CC[C@H]4[C@H](C)CC[C@@H]1[C@@]24OO3
3.75 to 5.60

Another compound: C[C@H]1[C@@H](OCc2cn(-c3cccc(C(=O)N4CCOCC4)c3)nn2)O[C@@H]2O[C@@]3(C)CC[C@H]4[C@H](C)CC[C@@H]1[C@@]24OO3
3.75 to 5.60

* * *

- System: MDA-MB-231
- assay_method_text: Antiproliferative activity against human MDA-MB-231 cells by MTT assay
- Format: functional, cell-based
pIC50: −log10 of the molar value.
Recorded pIC50 by entry

// known answers, use as guide
[[record]]
sample_smiles = "Cc1c(C(F)(F)F)cc(Cl)c(Cl)c1-n1nnc(-c2nn(-c3nncc4ccccc34)cc2C=O)c1C"
value_measured = "4.56 to 5.17"

[[record]]
sample_smiles = "Cc1c(-n2nnc(-c3nn(-c4nncc5ccccc45)cc3C=O)c2C)cccc1C(F)(F)F"
value_measured = "4.56 to 5.17"

[[record]]
sample_smiles = "Cc1c(C(F)(F)F)cc(Cl)c(Cl)c1-n1nnc(-c2nn(-c3ccccc3)cc2C=O)c1C"
value_measured = "4.56 to 5.17"


For the next question, use this compound.
I have this compound here, COc1ccc(Cn2cc(Cn3c4ccccc4c(=O)c4cc(OC)ccc43)nn2)cc1 , and I need its recorded pIC50.
4.78 to 4.96

* * *

Recorded pIC50 by entry
- Tested on: PC-3
- assay_method_text: Antiproliferative activity against human PC3 cells assessed as reduction in cell viability after 24 hrs by MTT assay
- Assay type: functional, cell-based
- test_settings: PC-3, 24 h
pIC50: −log10 of the molar value.

// known answers, use as guide
[[record]]
compound = "COc1cccc2c1C(=O)c1c(O)c3c(c(O)c1C2=O)C[C@@](O)(C(=O)CO)C[C@@H]3O[C@H]1C[C@H](N)[C@H](O)[C@H](C)O1 [DOXORUBICIN]"
endpoint_name = "pIC50"
value_measured = "4.92 to 5.84"

[[record]]
compound = "COc1cc2nc(Cl)nc(Nc3ccc(Cn4cc(-c5ccccc5)nn4)cc3)c2cc1OC"
endpoint_name = "pIC50"
value_measured = "4.17 to 4.68"

[[record]]
compound = "C[C@H]1[C@@H](OCc2cn(-c3ccc([N+](=O)[O-])cc3)nn2)O[C@@H]2O[C@@]3(C)O[C@]24[C@H]1CC[C@@H](C)[C@@H]4C[C@H]3O"
endpoint_name = "pIC50"
value_measured = "4.05 to 5.39"

[[record]]
compound = "O=c1[nH]cc(F)c(=O)[nH]1 [FLUOROURACIL]"
endpoint_name = "pIC50"
value_measured = "5.72 to 5.80"


For the next question, use this compound.
I have this compound here, CC(=O)c1cccc(-n2cc(CO[C@H]3O[C@@H]4O[C@@]5(C)O[C@]46[C@@H](CC[C@@H](C)[C@@H]6C[C@H]5O)[C@H]3C)nn2)c1 , and I need its recorded pIC50.
4.05 to 5.39

* * *

- System: MDA-MB-231
- assay_method_text: Antiproliferative activity against human MDA-MB-231 cells by SRB assay
- Type: functional
endpoint_name: GI50

[[record]]
sample_smiles = "O=c1oc(-c2ccccc2)nn1Cc1cn(Cc2ccccc2)nn1"
value_measured = "820 to 2390 nM"


I have this compound here, N#Cc1ccccc1Cn1cc(CNc2ccc3oc(-c4ccccc4)cc(=O)c3c2)nn1 , and I need its recorded GI50.
110 to 1000 nM

Another compound: COC(=O)Nc1nc2cc(C(=O)c3cccs3)ccc2[nH]1
11 to 34 nM

Another compound: COc1cccc2c1C(=O)c1c(O)c3c(c(O)c1C2=O)C[C@@](O)(C(=O)CO)C[C@@H]3O[C@H]1C[C@H](N)[C@H](O)[C@H](C)O1
23 to 97 nM

* * *

- Tested on: MCF7
- assay_method_text: cells
- Assay type: functional, cell-based
- test_settings: Homo sapiens
- Description: Antiproliferative activity against human MCF7 cells by MTT assay
endpoint_name: IC50

[[record]]
molecule = "Cc1c(-n2nnc(-c3nn(-c4nncc5ccccc45)cc3C=O)c2C)cccc1C(F)(F)F"
endpoint_name = "IC50"
value_measured = "6.8 to 27.6 µM"

[[record]]
molecule = "C[C@H]1[C@@H](OCc2cn(-c3cccc(C(=O)N4CCN(c5ccccc5)CC4)c3)nn2)O[C@@H]2O[C@@]3(C)CC[C@H]4[C@H](C)CC[C@@H]1[C@@]24OO3"
endpoint_name = "IC50"
value_measured = "2.5 to 176 µM"

[[record]]
molecule = "O=c1[nH]cc(F)c(=O)[nH]1 [FLUOROURACIL]"
endpoint_name = "IC50"
value_measured = "30 µg/mL"

[[record]]
molecule = "Cc1c(C(F)(F)F)cc(Cl)c(Cl)c1-n1nnc(-c2nn(-c3nncc4ccccc34)cc2C=O)c1C"
endpoint_name = "IC50"
value_measured = "6.8 to 27.6 µM"


For the next question, use this molecule.
I have this molecule here, CC1CCN(C(=O)c2cccc(-n3cc(CO[C@H]4O[C@@H]5O[C@@]6(C)CC[C@H]7[C@H](C)CC[C@@H]([C@H]4C)[C@@]57OO6)nn3)c2)CC1 , and I need its recorded IC50.
2.5 to 176 µM

* * *

- Test system: HeLa
- assay_method_text: Antiproliferative activity against human HeLa cells assessed as reduction in cell viability after 48 hrs by MTT assay
- Format: functional, cell-based
pIC50: −log10 of the molar value.
endpoint_name: pIC50

[[record]]
compound = "COc1cccc2c1C(=O)c1c(O)c3c(c(O)c1C2=O)C[C@@](O)(C(=O)CO)C[C@@H]3O[C@H]1C[C@H](N)[C@H](O)[C@H](C)O1 [DOXORUBICIN]"
value_measured = "5.33 to 6.26"

[[record]]
compound = "O=C(NCc1cn(-c2ccc(F)cc2)nn1)C(=O)c1c[nH]c2ccccc12"
value_measured = "< 4.00"


For the next question, use this compound.
I have this compound here, N#CC1=C(N)Oc2ccccc2C12C(=O)N(Cc1cn(CCCCBr)nn1)c1ccccc12 (stereo not drawn) , and I need its recorded pIC50.
5.04 to 5.32
